Numbers sourced from paper PMC5483248.

Target: GlyR3 (Clostridium thermocellum) (UniProt Q9AL35)
Sequence: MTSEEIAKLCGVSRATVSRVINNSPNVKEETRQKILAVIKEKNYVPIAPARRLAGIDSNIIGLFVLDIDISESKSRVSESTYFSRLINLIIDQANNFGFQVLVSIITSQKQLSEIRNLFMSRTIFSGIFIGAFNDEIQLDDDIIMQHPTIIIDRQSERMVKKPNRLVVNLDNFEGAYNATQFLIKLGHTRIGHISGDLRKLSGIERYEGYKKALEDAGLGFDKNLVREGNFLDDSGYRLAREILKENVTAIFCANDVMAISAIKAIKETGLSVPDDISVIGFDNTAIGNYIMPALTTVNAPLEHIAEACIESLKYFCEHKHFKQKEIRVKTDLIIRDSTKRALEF
Test: EMSA
Details: LightShift Chemiluminescent EMSA kit, TBE gel; 0.2 ng biotin-DNA (0.156-0.204 nM), GlyR3 150 ng (387 nM) unless titrated; binding buffer salt, pH and …
assay_readout: binding

Entry TGAGCAAATCAATTGTAATATGAAGAAAAATATAGTAAGATATTAATAAAAGAATAAAATAATATATTGGTATAATATGTAAATCGGTTGCAGTAATGCTATTCCAATAAAAGATGAAAGATTTCCGTTAATTCATTGAAAGAAACGTTCTGCTGCA (double strand) [celT EMSA fragment] : reported binding = ?
no binding

Please do the same for TGTTATCTTCGGTTAGCTCATCAAGGTAATCATAGAATATATTATAAAGAGTAACAAAGTAAATAAACTCAGGTGTATTTTCTTTATATAGAATTCTCATTTGCTCAAGAACTTTATCTTTAACATCCTGAACAGCAGTATCATCCTCCCA (double strand) [random control DNA fragment] as well.
no binding

Would you kindly repeat that for CCGAATAAAAACTGGACAGAGAAGAAGAAAACGTGATATAATTAAATTAGAATGAACGCGCGTACATTATTGAATAATCCAGTGTTAAATGGTTTCAGTTTACGATTTCAAATGTTTATATCCAATTTACATTTAAAAACATACAAAACATCAAAAGTATTTAATACCAATATTTAAAACACAATATTTCAGGAGGA (double strand) [celC EMSA fragment] ?
binds
